target.entity: GTPase KRas (Homo sapiens, UniProt P01116, G12D)
protocol: Inhibition of KRAS G12D mutant in human AGS cells assessed as reduction in ERK phosphorylation measured after 3 hrs by In-Cell Western assay
recorded.metric: pIC50
Worth noting: pIC50 values are minus log10 of concentrations stated in mol/L.

INSERT INTO measurements (molecule, observed_result) VALUES
  ('Fc1c(-c2cccc3cccc(Cl)c23)ncc2c(N3C[C@H]4CC[C@@H](C3)N4)nc(OCC34CCCN3CCC4)nc12', 6.72),
  ('CN(C)C1CN(c2nc(N3CC4CCC(C3)N4)c3cnc(-c4cc(O)cc5ccccc45)c(F)c3n2)C1', 5.89),
  ('Oc1cc(-c2ncc3c(N4CC5CCC(C4)N5)nc(OCC45CCCCN4CCC5)nc3c2F)c2ccccc2c1 (racemic)', 6.19);

Moving on to the next molecule.
## Task Supply measured pIC50 of `Fc1c(-c2cccc3cccc(F)c23)ncc2c(N3C[C@H]4CC[C@@H](C3)N4)nc(OCC34CCCN3CCC4)nc12` in your reply.
## Result 6.42

---

target.entity: GTPase KRas (Homo sapiens)
protocol: Binding affinity to human AviTEV6His-tagged KRAS isoform 4B wild type (1 to 169 residues) expressed in Escherichia coli BL21 (DE3) assessed as dissociation constant by SPR analysis
The reader will find reported Kd values listed item by item below.
Quick note: give the figure in µM, leave out the unit.

// solved cases for Kd follow
INSERT INTO results (line_notation, observed_result) VALUES
  ('CN1CCC[C@H]1COc1nc(N2CCOCC2)c2cnc(-c3cc(O)cc4ccccc34)c(F)c2n1', 0.56),
  ('CN1CCC[C@H]1COc1nc(N2CCNCC2)c2cnc(-c3cccc4cccc(Cl)c34)c(F)c2n1', 36);

Shift focus to the following entry.
## Task Answer with reported Kd of `CN1CCN(c2nc(OC[C@@H]3CCCN3C)nc3c(F)c(-c4cc(O)cc5ccccc45)ncc23)CC1`
## Result 6.2

---

target.entity: GTPase KRas (Homo sapiens, UniProt P01116, G12D)
protocol: Inhibition of KRAS G12D mutant in human AGS cells assessed as reduction in ERK phosphorylation measured after 3 hrs by In-Cell Western assay
recorded.metric: pIC50
Note on pIC50: it is the negative log10 of concentration, concentration in mol/L.

Answered cases to consult:
INSERT INTO results (line_notation, recorded_metric, observed_result) VALUES
  ('Cn1ccnc1CCOc1nc(N2C[C@H]3CC[C@@H](C2)N3)c2cnc(-c3cc(O)cc4ccccc34)c(F)c2n1', 'pIC50', 5.46),
  ('Oc1cc(-c2ncc3c(N4C[C@H]5CC[C@@H](C4)N5)nc(OCC45CCCN4CCC5)nc3c2F)c2ccccc2c1', 'pIC50', 6.57);

Shift focus to the following entry.
## Task Please give the documented pIC50 of `Fc1ccc2cccc(-c3ncc4c(N5C[C@H]6CC[C@@H](C5)N6)nc(OCC56CCCN5CCC6)nc4c3F)c2c1`
## Result 6.43

---

Test system: AGS
protocol: cells
test.parameters: Homo sapiens, 72 h
recorded.metric: pIC50
Would you please state pIC50, meaning minus log10 of the concentration in mol/L, as a bare number?

## Task Tell me pIC50 reported for `C#Cc1c(F)ccc2cc(O)cc(-c3ncc4c(N5C[C@H]6CC[C@@H](C5)N6)nc(OC[C@@]56CCCN5C[C@H](F)C6)nc4c3F)c12`
## Result 8.22

---

target.entity: GTPase KRas (Homo sapiens, UniProt P01116, G12D)
protocol: Inhibition of KRAS G12D mutant in human AGS cells assessed as reduction in ERK phosphorylation measured after 3 hrs by In-Cell Western assay
recorded.metric: pIC50
Please keep in mind that pIC50 is minus log10 of the molar concentration; only the number is needed.

## Task Please tell me the measured pIC50 for `Cc1cccc2cccc(-c3ncc4c(N5C[C@H]6CC[C@@H](C5)N6)nc(OCC56CCCN5CCC6)nc4c3F)c12` ; system: GTPase KRas (Homo sapiens, UniProt P01116, G12D).
## Result 5.60

## Task Report its pIC50 with GTPase KRas (Homo sapiens, UniProt P01116, G12D) as the test system: `C#Cc1cccc2cc(O)cc(-c3ncc4c(N5C[C@H]6CC[C@@H](C5)N6)nc(OCC56CCCN5CCC6)nc4c3F)c12`
## Result 7.85

## Task Provide pIC50, recorded with GTPase KRas (Homo sapiens, UniProt P01116, G12D), of `C#Cc1cccc2cccc(-c3ncc4c(N5C[C@H]6CC[C@@H](C5)N6)nc(OCC56CCCN5CCC6)nc4c3F)c12`
## Result 7.15

## Task Quote GTPase KRas (Homo sapiens, UniProt P01116, G12D) pIC50 for entry `COc1cccc2cccc(-c3ncc4c(N5C[C@H]6CC[C@@H](C5)N6)nc(OCC56CCCN5CCC6)nc4c3F)c12` .
## Result 5.92

## Task Give pIC50 for `C#Cc1c(F)ccc2cccc(-c3ncc4c(N5C[C@H]6CC[C@@H](C5)N6)nc(OCC56CCCN5CCC6)nc4c3F)c12` tested on GTPase KRas (Homo sapiens, UniProt P01116, G12D).
## Result 7.62

## Task Consider the compound `Fc1ccc2cccc(-c3ncc4c(N5C[C@H]6CC[C@@H](C5)N6)nc(OCC56CCCN5CCC6)nc4c3F)c2c1F` tested on GTPase KRas (Homo sapiens, UniProt P01116, G12D); state its pIC50.
## Result 7.01

## Task Quote pIC50 with test system GTPase KRas (Homo sapiens, UniProt P01116, G12D) for `CCc1cccc2cccc(-c3ncc4c(N5C[C@H]6CC[C@@H](C5)N6)nc(OCC56CCCN5CCC6)nc4c3F)c12`
## Result 6.70

## Task Give the observed pIC50 of `Oc1cc(-c2ncc3c(N4C[C@H]5CC[C@@H](C4)N5)nc(OCC45CCCN4CCC5)nc3c2F)c2c(Cl)cccc2c1` for GTPase KRas (Homo sapiens, UniProt P01116, G12D).
## Result 7.20

## Task Provide pIC50, system GTPase KRas (Homo sapiens, UniProt P01116, G12D), entry `Oc1cc(-c2ncc3c(N4C[C@H]5CC[C@@H](C4)N5)nc(OCCN4C[C@@H]5C[C@H]4CO5)nc3c2F)c2ccccc2c1`
## Result 5.52
